Assign Kd to each entry below.
SYSTEM: T1, purified ALK protein (BLitz, Table 20) (Homo sapiens (Human), UniProt Q9UM73 19-1038, limits assumed)
T1 construct: also called purified ALK proteins
T1 sequence (Q9UM73 19-1038 limits assumed): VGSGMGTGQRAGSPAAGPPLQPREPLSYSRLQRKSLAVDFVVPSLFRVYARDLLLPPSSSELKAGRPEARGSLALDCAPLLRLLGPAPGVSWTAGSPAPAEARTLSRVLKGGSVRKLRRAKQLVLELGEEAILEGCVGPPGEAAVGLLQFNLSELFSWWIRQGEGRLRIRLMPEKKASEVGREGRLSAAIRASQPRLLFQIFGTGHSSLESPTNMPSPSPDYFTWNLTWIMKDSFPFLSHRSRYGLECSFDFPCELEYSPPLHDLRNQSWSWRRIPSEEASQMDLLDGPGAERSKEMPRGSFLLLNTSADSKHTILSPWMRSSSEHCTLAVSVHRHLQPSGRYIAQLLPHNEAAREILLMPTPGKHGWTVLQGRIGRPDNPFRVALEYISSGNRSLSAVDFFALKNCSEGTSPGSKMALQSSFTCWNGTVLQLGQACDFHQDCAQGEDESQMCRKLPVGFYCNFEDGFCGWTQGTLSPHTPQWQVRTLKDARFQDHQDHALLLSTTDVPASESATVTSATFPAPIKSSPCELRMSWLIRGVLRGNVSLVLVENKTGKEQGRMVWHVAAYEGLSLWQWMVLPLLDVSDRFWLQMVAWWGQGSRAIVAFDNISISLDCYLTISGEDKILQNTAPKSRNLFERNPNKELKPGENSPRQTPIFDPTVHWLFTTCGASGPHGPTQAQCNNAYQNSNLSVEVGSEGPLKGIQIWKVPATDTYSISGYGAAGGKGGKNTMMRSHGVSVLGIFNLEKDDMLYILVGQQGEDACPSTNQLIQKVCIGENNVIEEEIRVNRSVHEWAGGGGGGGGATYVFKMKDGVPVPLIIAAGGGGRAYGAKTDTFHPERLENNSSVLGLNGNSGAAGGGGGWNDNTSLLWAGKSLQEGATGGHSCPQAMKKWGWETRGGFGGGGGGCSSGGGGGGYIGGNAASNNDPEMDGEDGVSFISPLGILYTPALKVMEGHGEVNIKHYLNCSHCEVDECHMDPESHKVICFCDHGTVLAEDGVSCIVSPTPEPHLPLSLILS
ASSAY_COMMENT: BLI (BLitz), mAb on Protein A tip, purified ALK in solution
Experimental: Kinetic measurements of the monovalent affinity of the 96 humanized ALK antibody variants (Ab351-Ab446) were collected. Affinity ranking was performed using a BLitz® System (ForteBio, Menlo Park, Calif.). Humanized anti-ALK antibodies were immobilized at 0.5 mg/mL using Protein A tips. Once baseline stability was ensured, purified ALK proteins at 70 μg/mL were added. The resulting kinetic data were fit to a single binding site equation, from which the quoted monovalent KD values were derived.
Answers are plain numbers, in nM.

- BINDER: "Ab392 (antibody, V domains shown, humanized) VH: EVQLVQSGAEVKKPGASVKLSCKASGYTFTSYWMHWVRQAPGQGLEWIGYIKPSSGYTKYNQKFKDKATLTADKSTSTAYMELRSLRSDDTAVYYCARDYYGSSSWFAYWGQGTLVTVSS VL: EIVMTQSPATLSTSPGERATLSCKASQNVGTNVAWYQQKPGQAPRALIYSASYRYSGVPARFSGSGSGTDFTLTISSVEPEDFAVYYCQQYNSYPYMYTFGQGTKLEIK"
  Kd / nM: 179

Now turn to the next binder.
query: So what's the measured Kd for this one? Ab396 (antibody, V domains shown, humanized) VH: EVQLVQSGAEVKKPGSSVKLSCKASGYTFTSYWMHWVRQAPGQGLEWIGYIKPSSGYTKYNQKFKDKATLTADKSTSTAYMELSSLRSEDTAVYYCARDYYGSSSWFAYWGQGTLVTVSS VL: EIVMTQSPATLSTSPGERATLSCKASQNVGTNVAWYQQKPGQAPRALIYSASYRYSGVPARFSGSGSGTDFTLTISSVEPEDFAVYYCQQYNSYPYMYTFGQGTKLEIK
result: 176
